Consider compounds characterized by their IC50 with PIK3CG (human).
PARAMETER: IC50 (µM)

a. CNC(=O)Nc1ccc(-c2nc3c(c(N4CC5CCC(C4)O5)n2)CCN(C(=O)c2ccc(C(C)(C)C)cc2)C3)cc1
b. CNC(=O)Nc1ccc(-c2nc3c(c(N4CC5CCC(C4)O5)n2)CCN(S(=O)(=O)c2ccccc2)C3)cc1
Inquiry: Would you mind telling me which has the lower recorded IC50 between a and b ? # reply format: chosen label
Reply text: b

---

Consider compounds characterized by their IC50 with PIK3CG (human).
PARAMETER: IC50 (nM)

P. CNC(=O)Nc1ccc(-c2nc3c(c(N4CCOCC4)n2)CNC3)cc1
Q. CNC(=O)Nc1ccc(-c2nc3c(c(N4CC5CCC(C4)O5)n2)CCN(S(=O)(=O)c2ccc(Cl)cc2)C3)cc1
R. CS(=O)(=O)N1Cc2nc(-c3ccc(NC(=O)Nc4cccnc4)cc3)nc(N3CCOCC3)c2C1
Inquiry: Order by IC50, ascending. Please list the labels in the order you were asked to rank them.
Reply text: P, R, Q

Taken from the Kinase Knowledgebase extract (Sharma et al. 2016).
